tested on: MCF7; test: Cytotoxicity against human MCF7 cells assessed as reduction in cell growth incubated for 72 hrs by MTT assay; assay type: functional, cell-based; conditions: MCF7, 72 h
observationType: pIC50
Numbers only, as −log10 of the molar value.

Worked cases, pIC50 given:
N/C(=N\NC(=S)N1CCN(c2ccccn2)CC1)c1ccc(F)cn1	4.66
Cc1ccnc(/C(N)=N/NC(=S)N2CCCCC2)c1	4.73
N/C(=N\NC(=S)N1CCOCC1)c1ccccn1	5.33
N/C(=N\NC(=S)N1CCCCC1)c1ccccn1	5.07
Cc1cccc(/C(N)=N/NC(=S)N2CCOCC2)n1	4.67

List the reported pIC50 of each molecule below.
1. N/C(=N\NC(=S)N1CCSCC1)c1ccc(F)cn1
2. N/C(=N\NC(=S)N1CCOCC1)c1ccc(F)cn1
3. N/C(=N\NC(=S)N1CCCC1)c1ccc(F)cn1

1. 4.67
2. 4.66
3. 6.05

List the reported pIC50 of each molecule below.
1. N/C(=N\NC(=S)N1CCSCC1)c1ccccn1
2. Cc1cccc(/C(N)=N/NC(=S)N2CCCCC2)n1
3. Cc1cccc(/C(N)=N/NC(=S)N2CCCCCC2)n1
4. N/C(=N\NC(=S)N1CCCCCC1)c1ccccn1
5. N/C(=N\NC(=S)N1CCCCCC1)c1ccc(F)cn1
6. Cc1ccnc(/C(N)=N/NC(=S)N2CCCC2)c1
7. Cc1ccnc(/C(N)=N/NC(=S)N2CCCCCC2)c1

1. 5.06
2. 4.13
3. 4.26
4. 5.59
5. 4.68
6. 5.92
7. 5.16

List the reported pIC50 of each molecule below.
1. N/C(=N\NC(=S)N1CCCC1)c1ccccn1
2. Cc1cccc(/C(N)=N/NC(=S)N2CCCC2)n1
3. Cc1ccnc(/C(N)=N/NC(=S)N2CCN(c3ccccn3)CC2)c1
4. N/C(=N\NC(=S)N1CCN(c2ccccn2)CC1)c1ccccn1
5. Cc1ccnc(/C(N)=N/NC(=S)N2CCSCC2)c1

[5.44, 4.21, 4.91, 4.86, 5.16]
